// provenance: ChEMBL document CHEMBL4184324

- EXPERIMENTAL SYSTEM: Heat shock protein HSP90 (Homo sapiens, UniProt P07900+P08238)
- ASSAY SUMMARY: Binding affinity to recombinant N-terminal Hsp90 (unknown origin) by SPR method
- Format: protein assay
METRIC NAME: Kd (nM)

Here's what some known entries look like.
| CHEMICAL STRING | ENDPOINT RESULT |
| --- | --- |
| CC(=O)N1CCc2ccc(N(C)C(=O)c3cc4c(Cc5cccc(C)c5)n[nH]c4cc3O)cc21 | 51.8 |
| CC(=O)c1ccc(N(C)C(=O)c2cc3c(Cc4cccc(C)c4)n[nH]c3cc2O)cc1 | 25.4 |

I = Cc1cccc(Cc2n[nH]c3cc(O)c(C(=O)N(C)c4cccc(F)c4)cc23)c1
II = Cc1cccc(Cc2n[nH]c3cc(O)c(C(=O)N(C)c4ccc(COCCN(C)C)cc4)cc23)c1
III = COc1ccc(N(C)C(=O)c2cc3c(Cc4cccc(C)c4)n[nH]c3cc2O)cc1
Asked: Hey, can you sort those molecules up there by Kd, smallest first? # respond with the labels, arranged in the requested order
Given back: II, III, I

P = COc1cccc(N(C)C(=O)c2cc3c(Cc4cccc(C)c4)n[nH]c3cc2O)c1
Q = Cc1cccc(Cc2n[nH]c3cc(O)c(C(=O)N(C)c4ccc(F)cc4)cc23)c1
Asked: When P and Q are compared, which has the higher number for Kd? Please indicate the selected item by its label.
Given back: Q
(Q: 73 nM, P: 43 nM)

I = CC(=O)N1CCc2cc(N(C)C(=O)c3cc4c(Cc5cccc(C)c5)n[nH]c4cc3O)ccc21
II = CCCc1n[nH]c2cc(O)c(C(=O)N(C)c3ccc(N4CCOCC4)cc3)cc12
Asked: Which of the two items, I and II , has the greater recorded Kd? Answer = label.
Given back: I

P = Cc1cccc(Cc2n[nH]c3cc(O)c(C(=O)N(C)c4ccc5c(c4)OCCO5)cc23)c1
Q = Cc1cccc(Cc2n[nH]c3cc(O)c(C(=O)N(C)c4ccc(CNS(C)(=O)=O)cc4)cc23)c1
Asked: Pick one: P or Q . Which one has the lower reported Kd? Returns: label corresponding to the selected item.
Given back: Q
(Q: 16 nM, P: 38.6 nM)

1 = Cc1cccc(Cc2n[nH]c3cc(O)c(C(=O)N(C)c4ccc(Cl)cc4)cc23)c1
2 = COc1ccc(N(C)C(=O)c2cc3c(Cc4cccc(C)c4)n[nH]c3cc2O)cc1Cl
Asked: Kd comparison. Which is larger, 1 or 2 ? Answer by quoting the chosen item's label.
Given back: 1

1 = CN(C(=O)c1cc2c(CC3CCCC3)n[nH]c2cc1O)c1ccc(N2CCOCC2)cc1
2 = Cc1cccc(Cc2n[nH]c3cc(O)c(C(=O)N(C)c4cccc(C)c4)cc23)c1
3 = CN(C(=O)c1cc2c(CC3CCCCC3)n[nH]c2cc1O)c1ccc(N2CCOCC2)cc1
4 = COc1cccc(Cc2n[nH]c3cc(O)c(C(=O)N(C)c4ccc(N5CCOCC5)cc4)cc23)c1
Asked: Sort the 4 molecules by Kd; largest first, smallest last. Sort the labels as requested; that list is your answer.
Given back: 2, 3, 4, 1
(2: 70 nM, 3: 42 nM, 4: 12 nM, 1: 7.8 nM)
